Tested on: Staphylococcus aureus
ASSAY_SUMMARY: Antibacterial activity against Staphylococcus aureus RN4220 after 24 hrs by broth microdilution method
Format: functional
STUDY_CONDITIONS: RN4220, 24 h
READOUT_NAME: MIC (µg/mL)
Numeric only. Scale: µg/mL

Any idea what MIC was measured for `O=C(O)[C@H](Cc1ccccc1)N1C(=O)/C(=C/c2cc3cc(OCc4ccccc4F)ccc3nc2Cl)SC1=S` ?
4

Look at this compound and give its reported MIC. COc1c(N2CCNC(C)C2)c(F)cc2c(=O)c(C(=O)O)cn(C3CC3)c12 (stereo not drawn)
0.25

MIC for `O=C(O)[C@H](Cc1ccccc1)N1C(=O)/C(=C/c2cc3cc(OCc4ccc(F)cc4)ccc3nc2Cl)SC1=S` ?
4

I am curious: what MIC value has been reported for `Cc1ccc(COc2ccc3nc(Cl)c(/C=C4\SC(=S)N([C@@H](Cc5ccccc5)C(=O)O)C4=O)cc3c2)cc1` ?
2

Would you mind telling me what MIC value was observed for CCC(C)[C@@H](C(=O)O)N1C(=O)/C(=C/c2cc3cc(OCc4ccccc4Cl)ccc3nc2Cl)SC1=S (stereo partly drawn) ?
4

Entry under review: CCC(C)[C@@H](C(=O)O)N1C(=O)/C(=C/c2cc3cc(OCc4cccc(F)c4)ccc3nc2Cl)SC1=S (stereo partly drawn) . Reported MIC?
2

Quick one: MIC for CCC(C)[C@@H](C(=O)O)N1C(=O)/C(=C/c2cc3cc(OCc4ccc(Cl)cc4)ccc3nc2Cl)SC1=S (stereo partly drawn) ?
2

Consider the compound shown here: CCC(C)[C@@H](C(=O)O)N1C(=O)/C(=C/c2cc3cc(OCc4ccc(C)cc4)ccc3nc2Cl)SC1=S (stereo partly drawn) What is its recorded MIC?
2

These measurements were taken from ChEMBL document CHEMBL2401670.
